# tested-target: human HSD17B13 (Homo sapiens, UniProt Q7Z5P4)
# Sequence (Q7Z5P4 20-300): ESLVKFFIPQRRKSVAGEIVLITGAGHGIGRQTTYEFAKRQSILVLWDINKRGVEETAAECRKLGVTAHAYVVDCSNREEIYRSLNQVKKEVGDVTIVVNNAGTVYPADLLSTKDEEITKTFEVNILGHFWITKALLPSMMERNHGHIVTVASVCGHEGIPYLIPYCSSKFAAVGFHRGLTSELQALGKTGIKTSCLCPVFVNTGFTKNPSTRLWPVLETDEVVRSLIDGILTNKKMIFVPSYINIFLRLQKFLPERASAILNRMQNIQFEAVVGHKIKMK
# measurement-description: Substrate screening of steroid and bioactive lipid libraries against purified recombinant HSD17B13 (NADH-linked luciferase assay)
# Type: biochemical
# cond: Bioactive Lipid Library, 5 μM bioactive lipid, normalized to 50 μM estradiol after subtraction of 5% DMSO
Counter-ions that a name gives are not always drawn.
measured-parameter: HSD17B13 Enzymatic Activity Percent Estradiol Control (%)

>  <compound>
CC/C=C\C/C=C\C=C\[C@@H](O)CCCCCCCC(=O)O [9(S)-HOTrE]

>  <meas-value>
22.31

$$$$
>  <compound>
CC/C=C/C[C@H](O)/C=C/[C@@H]1[C@@H](C/C=C\CCCC(=O)O)[C@@H](O)C[C@H]1O (relative stereo) [17-trans Prostaglandin F3α]

>  <meas-value>
7.01

$$$$
>  <compound>
CC/C=C\CC(O)C(O)C/C=C\C/C=C\C/C=C\CCCC(=O)O (racemic) [(±)14(15)-DiHETE]

>  <meas-value>
2.37

$$$$
>  <compound>
O=P(O)(O)OC1[C@@H](O)[C@@H](O)C(OP(=O)(O)O)[C@H](O)[C@H]1O (some centres unmarked) [(sodium salt)]

>  <meas-value>
8.63

$$$$
>  <compound>
O=C(O)CCCCC(=O)CC[C@H]1[C@H](O)CC(=O)[C@@H]1CCC(=O)O

>  <meas-value>
5.17

$$$$
>  <compound>
CCCCC/C=C\C=C\[C@H](O)C/C=C\C/C=C\CCCC(=O)O [11(R)-HETE]

>  <meas-value>
57.80

$$$$
>  <compound>
CC/C=C\C[C@@H](/C=C/C=C\CCCCCCCC(=O)O)OO [13(S)-HpOTrE]

>  <meas-value>
−18.70

$$$$
>  <compound>
CCCCC[C@H](O)/C=C/C=C\CCCCCCCCCC(=O)O [15(S)-HEDE]

>  <meas-value>
57.54

$$$$
>  <compound>
CCCCC/C=C\C/C=C\C/C=C\C=C\C1CCCC(=O)O1 (racemic) [(±)5-HETE lactone]

>  <meas-value>
4.56

$$$$
>  <compound>
CCCCCCCC/C=C(\CCCCCCCC(=O)O)[N+](=O)[O-] [9-Nitrooleate]

>  <meas-value>
−22.16

$$$$
>  <compound>
CCCCCC(=O)/C=C/C=C\C/C=C\C/C=C\CCCC(=O)O

>  <meas-value>
−8.98

$$$$
>  <compound>
CCCCC[C@@H](O)/C=C/C=C\C/C=C\C/C=C\CCCC(=O)O [15(R)-HETE]

>  <meas-value>
61.00

$$$$
>  <compound>
CCCCC[C@H](O)/C=C/[C@H]1C(=O)CC(=O)[C@@H]1C/C=C\CCCC(=O)O

>  <meas-value>
−10.08

$$$$
>  <compound>
CCCCC[C@@H](/C=C/C=C\CCCCCCCC(=O)O)OO [13(S)-HpODE]

>  <meas-value>
−7.72

$$$$
>  <compound>
CCCCC/C=C\C[C@H]1O[C@H]1C/C=C\C/C=C\CCCC(=O)NCCO [11(12)-EET Ethanolamide]

>  <meas-value>
8.74

$$$$
>  <compound>
CCCCC/C=C\CC(O)C(O)C/C=C\C/C=C\CCCC(=O)O (racemic) [(±)11(12)-DiHET]

>  <meas-value>
20.69

$$$$
>  <compound>
O=P(O)(O)OC1[C@@H](O)[C@@H](O)C(O)[C@H](O)[C@H]1O (some centres unmarked) [(ammonium salt)]

>  <meas-value>
6.33

$$$$

---

# tested-target: HSD17B11 (Homo sapiens)
# Construct: made in house
# Sequence (Q8NBQ5 20-300): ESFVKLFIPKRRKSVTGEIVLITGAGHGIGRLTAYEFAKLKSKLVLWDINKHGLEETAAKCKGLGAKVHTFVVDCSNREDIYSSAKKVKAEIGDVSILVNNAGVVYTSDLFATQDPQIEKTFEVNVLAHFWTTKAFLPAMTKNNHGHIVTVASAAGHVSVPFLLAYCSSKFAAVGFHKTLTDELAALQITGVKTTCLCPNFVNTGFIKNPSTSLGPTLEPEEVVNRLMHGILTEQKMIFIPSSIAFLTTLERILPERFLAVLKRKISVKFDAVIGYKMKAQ
# measurement-description: Steroid substrate panel against HSD17B family member B11
# Assay type: biochemical
# cond: substrate at 50 μM; estradiol set as 100%
measured-parameter: Percent of Control (POC), B11 (%)

>  <molecule>
C[C@]12CC[C@H](O)C[C@@H]1CC[C@@H]1[C@@H]2CC[C@]2(C)[C@@H](O)CC[C@@H]12

>  <tested-target>
HSD17B11 (Homo sapiens)

>  <meas-value>
0.0

$$$$
>  <molecule>
CC[C@H]1[C@@H](O)[C@@H]2[C@H](CC[C@]3(C)[C@@H]([C@H](C)CCC(=O)O)CC[C@@H]23)[C@@]2(C)CC[C@@H](O)C[C@@H]12

>  <tested-target>
HSD17B11 (Homo sapiens)

>  <meas-value>
0.0

$$$$
>  <molecule>
CC1(C)[C@@H](O[C@H]2O[C@H](C(=O)O)[C@@H](O)[C@H](O)[C@H]2O[C@@H]2O[C@H](C(=O)O)[C@@H](O)[C@H](O)[C@H]2O)CC[C@]2(C)[C@H]3C(=O)C=C4[C@@H]5C[C@@](C)(C(=O)O)CC[C@]5(C)CC[C@@]4(C)[C@]3(C)CC[C@@H]12

>  <tested-target>
HSD17B11 (Homo sapiens)

>  <meas-value>
32.7

$$$$
>  <molecule>
C[C@]12CCC(O)C[C@@H]1CC[C@@H]1[C@@H]2CC[C@]2(C)[C@@H](O)CC[C@@H]12 (stereo partly drawn)

>  <tested-target>
HSD17B11 (Homo sapiens)

>  <meas-value>
0.0

$$$$
>  <molecule>
C[C@]12CC[C@H]3[C@@H](CCC4=CC(=O)CC[C@@]43C)[C@@H]1CC[C@@H]2O

>  <tested-target>
HSD17B11 (Homo sapiens)

>  <meas-value>
10.4

$$$$
>  <molecule>
C[C@]12CC[C@@H](O)C[C@@H]1CC[C@@H]1[C@@H]2CC[C@]2(C)C(=O)[C@H](O)C[C@@H]12 [16alpha-Hydroxyandrosterone]

>  <tested-target>
HSD17B11 (Homo sapiens)

>  <meas-value>
0.0

$$$$

---

# tested-target: human HSD17B13 (Homo sapiens)
# Sequence (Q7Z5P4 20-300): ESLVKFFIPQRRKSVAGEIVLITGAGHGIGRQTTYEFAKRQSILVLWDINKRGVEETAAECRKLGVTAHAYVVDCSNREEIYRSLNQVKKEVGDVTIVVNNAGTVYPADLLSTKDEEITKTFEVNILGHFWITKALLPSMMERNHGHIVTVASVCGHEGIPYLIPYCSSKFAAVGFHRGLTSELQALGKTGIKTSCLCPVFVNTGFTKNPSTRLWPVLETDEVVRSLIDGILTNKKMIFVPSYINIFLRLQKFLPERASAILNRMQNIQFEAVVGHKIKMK
# measurement-description: Substrate screening of steroid and bioactive lipid libraries against purified recombinant HSD17B13 (NADH-linked luciferase assay)
# Format: biochemical
# cond: Steroid Library, 50 μM steroid, 500 μM NAD+, 100 ng enzyme, 3 hours at 23° C.
Listed below: HSD17B13 Enzymatic Activity Relative Light Units values for each entry.
measured-parameter: HSD17B13 Enzymatic Activity Relative Light Units (RLU)

>  <compound>
C[C@]12CCC(=O)C=C1CC[C@@H]1[C@@H]2[C@@H](O)C[C@]2(C=O)[C@@H](C(=O)CO)CC[C@@H]12

>  <meas-value>
217400

$$$$
>  <compound>
C[C@]12CCC(O)C[C@@H]1CC[C@@H]1[C@@H]2CC[C@]2(C)[C@@H](O)CC[C@@H]12 (stereo partly drawn)

>  <meas-value>
488440

$$$$
>  <compound>
C[C@]12CC[C@@H](O)C[C@@H]1CC[C@@H]1[C@@H]2CC[C@]2(C)C(=O)[C@H](O)C[C@@H]12 [16alpha-Hydroxyandrosterone]

>  <meas-value>
221840

$$$$
>  <compound>
C[C@]12CCC(=O)C[C@@H]1CC[C@@H]1[C@@H]2[C@@H](O)C[C@@]2(C)[C@H]1CC[C@]2(O)C(=O)CO [5alpha-dihydrocortisol]

>  <meas-value>
139720

$$$$
>  <compound>
C[C@]12C=CC(=O)C=C1CC[C@@H]1[C@@H]2C(=O)C[C@@]2(C)[C@H]1CC[C@]2(O)C(=O)CO

>  <meas-value>
196720

$$$$
>  <compound>
C[C@]12Cc3c[nH]nc3C[C@@H]1CC[C@@H]1[C@@H]2CC[C@@]2(C)[C@H]1CC[C@]2(C)O

>  <meas-value>
140840

$$$$

---

# tested-target: human HSD17B13 (Homo sapiens, UniProt Q7Z5P4)
# Sequence (Q7Z5P4 20-300): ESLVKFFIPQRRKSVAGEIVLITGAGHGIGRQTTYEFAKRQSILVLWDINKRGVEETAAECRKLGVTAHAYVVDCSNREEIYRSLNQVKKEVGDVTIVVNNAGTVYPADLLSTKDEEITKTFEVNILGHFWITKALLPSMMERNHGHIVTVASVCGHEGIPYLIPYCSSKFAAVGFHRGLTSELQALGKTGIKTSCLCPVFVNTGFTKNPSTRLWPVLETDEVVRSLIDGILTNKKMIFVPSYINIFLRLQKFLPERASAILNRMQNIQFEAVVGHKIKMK
# measurement-description: Substrate screening of steroid and bioactive lipid libraries against purified recombinant HSD17B13 (NADH-linked luciferase assay)
# Format: biochemical
# cond: Bioactive Lipid Library, 5 μM bioactive lipid, normalized to 50 μM estradiol after subtraction of 5% DMSO
# Method: To understand the functional consequences of premature truncation of the HSD17B13 protein due to rs72613567:TA (the associated variant, rs72613567, is an insertion of an adenine adjacent to the donor splice site of exon six (TA allele)), the enzymatic activity of isoforms A and D was evaluated in vitro using recombinant protein and nicotinamide […] dinucleotide as cofactor. […]
Counter-ions that a name gives are not always drawn.
measured-parameter: HSD17B13 Enzymatic Activity Percent Estradiol Control

>  <molecule>
CCCCC[C@@H](O)/C=C/C=C\CCCCCCCC(=O)O [13(R)-HODE]

>  <meas-value>
60.91%

$$$$
>  <molecule>
CC/C=C\C/C=C\C/C=C\C/C=C\CC(O)/C=C/C=C\CCC(=O)O (racemic) [(±)8-HDHA]

>  <meas-value>
36.16%

$$$$
>  <molecule>
CCCCCC(O)/C=C/C=C\CCCCCCCC(=O)O (racemic) [(±)13-HODE]

>  <meas-value>
49.62%

$$$$
>  <molecule>
O=C(O)CCC/C=C\C[C@H]1C(=O)C[C@@H](O)[C@@H]1/C=C/[C@@H](O)CCCCCO [20-hydroxy Prostaglandin E2]

>  <meas-value>
5.15%

$$$$
>  <molecule>
CCCCC/C=C\C/C=C\C/C=C\C[C@H]1O[C@H]1CCCC(=O)NCCO (racemic) [(±)5(6)-EET Ethanolamide]

>  <meas-value>
9.45%

$$$$
>  <molecule>
CCCCC[C@H](O)/C=C/C=C\C/C=C\C/C=C\CCCC(=O)O (racemic) [(±)15-HETE]

>  <meas-value>
30.81%

$$$$
>  <molecule>
CC/C=C\C[C@H]1C(=O)C=C[C@@H]1CCCCCCCC(=O)O [13-epi-12-oxo Phytodienoic Acid]

>  <meas-value>
2.97%

$$$$
>  <molecule>
CCCCC/C=C\C[C@@H](O)/C=C/C=C\C/C=C\CCCC(=O)O [12(R)-HETE]

>  <meas-value>
122.36%

$$$$
>  <molecule>
CCCCC(C)(C)[C@H](O)/C=C/[C@H]1[C@H](O)CC(=O)[C@@H]1C/C=C\CCCC(=O)Oc1ccc(NC(=O)c2ccc(NC(C)=O)cc2)cc1

>  <meas-value>
3.10%

$$$$
>  <molecule>
CCCCC[C@@H](/C=C/C=C\C/C=C\CCCCC(=O)O)OO [13(S)-HpOTrE(γ)]

>  <meas-value>
−1.34%

$$$$
>  <molecule>
O=P(O)(O)O[C@@H]1[C@H](OP(=O)(O)O)[C@H](OP(=O)(O)O)[C@@H](O)[C@H](O)[C@H]1OP(=O)(O)O [(sodium salt)]

>  <meas-value>
7.49%

$$$$
>  <molecule>
O=P(O)(O)O[C@@H]1C(O)[C@H](OP(=O)(O)O)[C@@H](O)C(O)[C@H]1O (some centres unmarked) [(sodium salt)]

>  <meas-value>
12.25%

$$$$
>  <molecule>
CCCCC[C@H](O)/C=C/C=C\C=C\C=C\[C@H](O)[C@@H](O)CCCC(=O)O [6(S)-Lipoxin A4]

>  <meas-value>
7.90%

$$$$
>  <molecule>
O=P(O)(O)OC1[C@H](O)[C@H](OP(=O)(O)O)C(OP(=O)(O)O)[C@H](OP(=O)(O)O)[C@H]1O (some centres unmarked) [(sodium salt)]

>  <meas-value>
2.56%

$$$$

Data origin: patent US11479802B2
